Data origin, for the record: patent US9586931B2

# SYSTEM TESTED: recombinant human GST-Syk (Homo sapiens)
# Construct: purchased Carna Biosciences 08-176
# ASSAY DETAILS: Homogeneous Time-Resolved Fluorescence (HTRF) assay for the recombinant human Syk enzyme
# Type: biochemical
# MEASUREMENT SETUP: recombinant human GST-Syk 5 pM, ATP 25 μM, 10-dose titration 10 μM to 0.508 nM; read-out: rhSYK Activity IC50
pIC50: −log10 of the molar value.
Classify by measured pIC50: rule met if it is equal to or exceeds 7, rule not met if it is smaller.

Worked examples, 5 compounds total:
COMPOUND | ASSIGNED LABEL
Cc1cc(Nc2nccc(C(F)(F)F)n2)cc(-c2cn(C(C)C(O)CC#N)nn2)c1 (single isomer, unassigned) [Example 4.6] | rule met
Cc1cc(Nc2cc(C3CC3)ccn2)nc(-c2cn(C(C)c3ccc(C(=O)O)cc3)nn2)c1 (stereo not shown) | rule met
Cc1cc(Nc2cc(C(F)(F)F)ccn2)nc(-c2cn(C3(CO)CCC3)nn2)c1 | rule met
COc1ccc(C2CN(C(=O)C(C)n3cc(-c4cc(C)cc(Nc5cc(C(F)(F)F)ccn5)n4)nn3)CCS2)cc1 (stereo not shown) | rule not met
Cc1cc(Nc2nccc(C(F)(F)F)n2)cc(-c2cn(CC(C)(O)CO)nn2)c1 (single isomer, unassigned) [Example 21.3] | rule met

Consider the record given below.
Input: Check the entry Cc1cc(Nc2cc(C(F)(F)F)ccn2)nc(-c2cn(C/C=C/COc3ccccc3Cl)nn2)c1 : does pIC50 equal or exceed 7?
Output: rule not met
